B1: CAMK2D (parent)
chain: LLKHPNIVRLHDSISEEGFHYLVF

# Variants of: B1
# assay_details: protein stability index of a GFP-peptide fusion (GPS, HEK-293T) (PSI 1-6); higher = more stable;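 note: lentivirally expressed fusions sorted by FACS into six bins by GFP to DsRed ratio, PSI derived from sequencing read proportions per bin multiplied by bin number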
# condition_label: c terminus: a fixed tail appended
Grouping key: protein stability index. Bins: class 1 = under 2, class 2 = from 2 up to 3, class 3 = 3 and over

{"variant_annotation": "F19Q", "category": "class 2"}
{"variant_annotation": "L1M", "category": "class 2"}

[in] // return the class label for K3M
[out] class 1

[in] // return the class label for S13K
[out] class 2
